Data credit: patent US20200247800A1

- target.or.test.system: human NOX4 (Homo sapiens, UniProt Q9NPH5)
- Construct: expressed in transfected cells; membrane fraction used
- method.description: Cell free membrane based in vitro NOX4 assay: H2O2 production by membranes expressing human NOX4, measured with Amplex Red
- Format: biochemical
- details: 1.0 μM compound, read-out: Percentage inhibition at 1.0 μM
measured.metric: inhibition at 1 µM (%)
Field: numeric (%). Do not append units.

Query :: For CCc1nn(CCN2CCC(F)(F)CC2)c2[nH]c(-c3ccccc3Cl)c(O)c(=O)c12 , what is its reported inhibition at 1 µM?
Result :: 91

Query :: What would you report for Cn1nc(CN2CCOCC2)c2c(=O)c(O)c(-c3c(F)cccc3F)[nH]c21 ?
Result :: 91.2

Query :: Proceed to Cc1nn(CCCN2CCOCC2)c2[nH]c(-c3ccccc3Cl)c(O)c(=O)c12
Result :: 94.3

Query :: Consider next the molecule O=c1c(O)c(-c2c(F)cccc2F)[nH]c2c1c(C1CCOCC1)nn2-c1ccc(F)cc1 in the same way.
Result :: 95.2

Query :: Now try Cn1nc(C(F)(F)F)c2c(=O)c(O)c(-c3ccc(F)cc3)[nH]c21 .
Result :: 86.8

Query :: Would you kindly repeat that for Cc1nn(CCN2C[C@@H](C)O[C@@H](C)C2)c2[nH]c(-c3ccccc3Cl)c(O)c(=O)c12 ?
Result :: 94.3

Query :: Entry to check: Cc1nn(-c2ccccn2)c2[nH]c(-c3c(F)cccc3F)c(O)c(=O)c12
Result :: 84.2

Query :: Cool, now Cn1nc(C(F)F)c2c(=O)c(O)c(-c3ccccc3Cl)[nH]c21
Result :: 72.5

Query :: And what about the molecule Cc1nn(C2CC2)c2[nH]c(-c3c(F)cccc3Cl)c(O)c(=O)c12 ?
Result :: 69.3

Query :: Also, CCn1nc(C)c2c(=O)c(O)c(-c3c(F)cccc3F)[nH]c21 please.
Result :: 84.3

Query :: Follow-up entry: Cn1ncc2c(=O)c(O)c(-c3cccc(Cl)c3)[nH]c21
Result :: 94.5

Query :: Also need Cn1nc(C2CCOCC2)c2c(=O)c(O)c(-c3ccccc3Cl)[nH]c21 , thanks.
Result :: 84.7

====

- target.or.test.system: human NOX4 (Homo sapiens)
- Construct: membrane fraction used
- Sequence (Q9NPH5 1-578): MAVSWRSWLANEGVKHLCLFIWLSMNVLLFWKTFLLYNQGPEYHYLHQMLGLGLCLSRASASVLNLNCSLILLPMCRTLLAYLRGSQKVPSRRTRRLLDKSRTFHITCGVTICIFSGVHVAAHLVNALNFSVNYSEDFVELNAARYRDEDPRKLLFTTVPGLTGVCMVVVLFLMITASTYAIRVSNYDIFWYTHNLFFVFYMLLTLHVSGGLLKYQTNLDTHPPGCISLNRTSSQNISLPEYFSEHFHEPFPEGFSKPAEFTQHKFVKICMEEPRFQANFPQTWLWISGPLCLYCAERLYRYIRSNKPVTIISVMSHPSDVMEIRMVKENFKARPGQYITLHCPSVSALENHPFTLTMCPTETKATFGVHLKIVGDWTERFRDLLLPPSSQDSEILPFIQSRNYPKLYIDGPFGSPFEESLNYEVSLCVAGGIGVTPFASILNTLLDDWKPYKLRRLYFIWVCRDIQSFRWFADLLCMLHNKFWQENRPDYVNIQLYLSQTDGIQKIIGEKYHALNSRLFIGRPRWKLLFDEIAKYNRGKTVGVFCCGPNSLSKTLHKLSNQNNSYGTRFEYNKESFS
- Sequence (P13498 1-195 partner): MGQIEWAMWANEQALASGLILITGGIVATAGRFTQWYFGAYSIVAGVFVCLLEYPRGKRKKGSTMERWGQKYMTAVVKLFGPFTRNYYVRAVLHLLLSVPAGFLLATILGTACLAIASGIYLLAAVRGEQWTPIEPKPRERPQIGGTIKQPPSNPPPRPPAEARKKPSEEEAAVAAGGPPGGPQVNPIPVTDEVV
- method.description: Cell free membrane based in vitro NOX4 assay: H2O2 production by membranes expressing human NOX4, measured with Amplex Red
- details: class symbols
measured.metric: IC50

Query :: Fill blank: measured IC50 of the compound CCn1nc(C)c2c(=O)c(O)c(-c3ccc(NS(C)(=O)=O)cc3F)[nH]c21 is ____.
Result :: > 150 nM

Query :: Try this compound too: CCc1nn(CCN2CCN(C)CC2)c2[nH]c(-c3cccc(C(F)(F)F)c3F)c(O)c(=O)c12
Result :: 100 to 150 nM

Query :: Try this compound next: CCc1nn(CC2CCOCC2)c2[nH]c(-c3c(F)cccc3F)c(O)c(=O)c12
Result :: 50 to 100 nM

Query :: Now this one: CC(C)N1CCN(Cc2nn(C)c3[nH]c(-c4c(F)cccc4F)c(O)c(=O)c23)C[C@H]1C
Result :: 100 to 150 nM

Query :: Then CCn1nc(C)c2c(=O)c(O)c(-c3cccc(C(F)(F)F)c3F)[nH]c21 ?
Result :: 100 to 150 nM

Query :: What would you report for Cn1nc(C(F)(F)F)c2c(=O)c(O)c(-c3ccccc3F)[nH]c21 ?
Result :: > 150 nM

Query :: Next up: CC(C)CN1CCN(Cc2nn(C)c3[nH]c(-c4c(F)cccc4F)c(O)c(=O)c23)CC1
Result :: > 150 nM

====

- target.or.test.system: human NOX4 (Homo sapiens)
- Construct: expressed in transfected cells; membrane fraction used
- method.description: Cell free membrane based in vitro NOX4 assay: H2O2 production by membranes expressing human NOX4, measured with Amplex Red
- Type: biochemical
- details: 1.0 μM compound, read-out: Percentage inhibition at 1.0 μM
measured.metric: inhibition at 1 µM (%)
# output: bare number, implied unit %

Query :: Entry Cn1nc(C(F)(F)F)c2c(=O)c(O)c(-c3ccc(Cl)cc3)[nH]c21 , system human NOX4 (Homo sapiens): what inhibition at 1 µM was measured?
Result :: 90.6

Query :: Now consider O=c1c(O)c(-c2ccccc2Cl)[nH]c2c1cnn2CC(F)(F)F and answer again.
Result :: 87.5

Query :: Queued: CC(C)CN1CCN(Cc2nn(C)c3[nH]c(-c4c(F)cccc4F)c(O)c(=O)c23)CC1
Result :: 81.8

Query :: Also need Cc1nn(C)c2[nH]c(-c3ccc(C(F)(F)F)c(F)c3)c(O)c(=O)c12 , thanks.
Result :: 100

Query :: Please give the result for Cc1noc2[nH]c(-c3ccccc3Cl)c(O)c(=O)c12 too.
Result :: 68.8

Query :: Also, CCc1nn(CCN2CCOCC2)c2[nH]c(-c3c(F)cccc3F)c(O)c(=O)c12 please.
Result :: 97.4

Query :: Repeat with CCc1nn(CCN2CCOCC2=O)c2[nH]c(-c3ccccc3Cl)c(O)c(=O)c12
Result :: 86

Query :: And then CCc1nn(CCS(C)(=O)=O)c2[nH]c(-c3c(F)cccc3F)c(O)c(=O)c12 , what is it?
Result :: 85.5

Query :: Here is the next compound: Cc1nn(-c2ccc(F)cc2)c2[nH]c(-c3ccccc3Cl)c(O)c(=O)c12
Result :: 100

Query :: Follow-up entry: Cc1nn(CCN2CCOCC2)c2[nH]c(-c3cccc(C(F)(F)F)c3F)c(O)c(=O)c12
Result :: 100

Query :: Now give it for O=c1c(O)c(-c2c(F)cccc2F)[nH]c2c1c(CO)nn2CCC1CCOCC1 too.
Result :: 83.8

Query :: Next up: CCn1nc(C)c2c(=O)c(O)c(-c3cccc(F)c3F)[nH]c21
Result :: 71.1

Query :: Proceed to CCc1nn(C)c2[nH]c(-c3cc(F)ccc3F)c(O)c(=O)c12
Result :: 72.8

Query :: Subsequent entry: CCc1nn(CCN2C[C@@H](C)O[C@@H](C)C2)c2[nH]c(-c3c(F)cccc3F)c(O)c(=O)c12
Result :: 91.4

Query :: Now consider CCc1nn(CC2CCOCC2)c2[nH]c(-c3c(F)cccc3F)c(O)c(=O)c12 and answer again.
Result :: 87.8

Query :: Now try Cn1nc(CN2CCN(C3COC3)CC2)c2c(=O)c(O)c(-c3c(F)cccc3F)[nH]c21 .
Result :: 81.7

Query :: Do the same for CCc1nn(CCn2cccn2)c2[nH]c(-c3c(F)cccc3F)c(O)c(=O)c12 please
Result :: 100

Query :: Record: Cc1nn(C)c2[nH]c(-c3ccc(C(F)(F)F)cc3F)c(O)c(=O)c12
Result :: 100

Query :: Same for Cn1nc(C(F)(F)F)c2c(=O)c(O)c(-c3cc(Cl)ccc3Cl)[nH]c21
Result :: 89.3

Query :: Let us now turn to Cc1nn(-c2ccc(F)c(F)c2)c2[nH]c(-c3c(F)cccc3F)c(O)c(=O)c12
Result :: 100

Query :: Can you handle CCc1nn(C)c2[nH]c(-c3ccc(OC)cc3Cl)c(O)c(=O)c12 next?
Result :: 79.8

Query :: Same thing, different compound: Cc1nn(-c2ccc(F)cc2Cl)c2[nH]c(-c3c(F)cccc3F)c(O)c(=O)c12
Result :: 99

Query :: What do you have for COc1ccc(-c2[nH]c3c(c(C)nn3Cc3ccccc3)c(=O)c2O)c(F)c1 ?
Result :: 88.9

Query :: Next compound up: CCc1nn(CCN2CCN(CC)CC2)c2[nH]c(-c3ccccc3Cl)c(O)c(=O)c12
Result :: 76.1
